assay_target: Rap guanine nucleotide exchange factor 3 (Homo sapiens)
protocol: Counterscreen qHTS for agonist of cAMP-regulated guanine nucleotide exchange factor 3 (EPAC1) (AID 1645889); further: % of control where 0% means no effect; nearly all actives have a fitted effect of over 40% in size
experimental_parameters: EPAC1 Rap1B-BODIPY-GDP exchange, fluorescence; series mostly up to 154 µM
Text: Assay Provider (PI): Xiaodong Cheng Ph.D. The University of Texas Medical Branch, […], TX MLPCN Grant: NS066510 In multi-cellular eukaryotic organisms, the effects of cAMP are transduced by two ubiquitously-expressed intracellular cAMP receptors, the classic protein kinase A/cAMP-dependent protein kinase (PKA/cAPK) and the more recently discovered exchange protein directly activated by cAMP/cAMP-regulated guanine nucleotide exchange factor (EPAC/cAMP-GEF). […]
Records with an inconclusive call do not appear. Active and inactive are the calls of the source. The call rests on the fitted dose curve; in most records, active means well fitted activation curve with a large enough effect; inconclusive means small, poorly fitted or top-dose-only effect, or another doubt; inactive means no such curve, though single readings can be large or run the other way.
value_type: activation

molecule	activation
COc1ccc(NC(=O)CCCSc2nc(-c3ccco3)cc(C(F)(F)F)n2)cc1	inactive
COc1ccccc1C(=O)Nc1ccccc1C(=O)N1C(C)CCCC1C (configuration not stated)	inactive
Cn1c(=O)c2c(nc(NCCc3ccccc3)n2CC(=O)NCCc2ccccc2)n(C)c1=O	inactive
COC(=O)C1=CN(Cc2cccs2)C=C(C(=O)OC)C1c1cccc(Cl)c1	24.6% [at 30.8 µM] (inactive)

State its activation: COc1nc(C)cc(C)c1S(=O)(=O)c1ccc(Cl)cc1
27.8% [at 30.8 µM] (inactive)

State its activation: CC(C)(C)OC(=O)N1CCN(C(=O)c2[nH]c(C(F)(F)F)nc2-c2ccccc2)CC1
inactive

State its activation: C=CCN1C(=O)/C(=C/c2ccc(OC(C)=O)c(OCC)c2[N+](=O)[O-])SC1=S
52.7% [at 30.8 µM] (inactive)

====

assay_target: Rap guanine nucleotide exchange factor 4 (Homo sapiens)
protocol: Confirmatory qHTS for antagonist of cAMP-regulated guanine nucleotide exchange factor 4 (EPAC2) (AID 1645885); further: nearly all actives have a fitted effect of over 25% in size
experimental_parameters: EPAC2 Rap1B-BODIPY-GDP exchange fluorescence, biochemical; series mostly up to 12.7 µM
Inconclusive results are not listed. Active and inactive are the calls of the source. Calls follow the shape of the dose curve; as a rule, active = well fitted inhibition curve with a large enough effect; inconclusive = small, poorly fitted or top-dose-only effect; inactive = no such curve, though single readings can be large or run the other way.
// allowed return values: class 1 for active, class 0 for inactive

Solved cases below.
compound	category_label
O=c1c([N+](=O)[O-])cn(Cc2ccccc2)c(=O)n1Cc1ccccc1	class 0
O=C(OCCN1C(=O)c2cccc3c(N4CCOCC4)ccc(c23)C1=O)c1cccc(Cl)c1	class 1
CCOc1cc2c3c(c1)C(C)=CC(C)(C)N3C(=O)C2=O	class 0
Cc1nc(C)c(-c2csc(Nc3ccc(C(=O)O)c(O)c3)n2)s1	class 0
Cc1ccc(C)c(S(=O)(=O)N2CCN(C(=O)CCc3nc4ccccc4c(=O)[nH]3)CC2)c1	class 0
COc1ccc(C(=O)/C=C/c2ccc(N(C)C)cc2)c(OC)c1	class 0

I would be grateful if you could indicate the recorded call for O=C(O)c1ccn2c(C(=O)c3ccc(Cl)cc3)c(-c3ccccc3)cc2c1 .
class 0

I would be grateful if you could indicate the recorded call for Cc1ccccc1OCC(=O)Nc1ccccc1N1CCC(C)CC1 .
class 1

I would be grateful if you could indicate the recorded call for Cc1cccc(NC(=O)CN2C(=O)S/C(=C\c3cccn3-c3cccc(C(=O)O)c3)C2=O)c1 .
class 0

I would be grateful if you could indicate the recorded call for CCOC(=O)N1CCc2c(sc3c2c(=O)n(-c2ccc(F)cc2)c(=O)n3CC(=O)c2ccc(Cl)cc2)C1 .
class 0

I would be grateful if you could indicate the recorded call for COC(=O)C(C)Sc1nc2ccsc2c(=O)n1Cc1ccccc1 (stereo not drawn) .
class 1

I would be grateful if you could indicate the recorded call for CN(C)S(=O)(=O)N(CC(=O)NCCSc1ccc(Cl)cc1)c1ccccc1 .
class 0

I would be grateful if you could indicate the recorded call for O=[N+]([O-])c1ccc(N(c2ccccc2)c2ccccc2)cc1 .
class 0

I would be grateful if you could indicate the recorded call for CN(C)S(=O)(=O)c1cccc(COC(=O)Cc2c(F)cccc2Cl)c1 .
class 0

====

assay_target: Rap guanine nucleotide exchange factor 3 (Homo sapiens) (UniProt O95398)
protocol: Counterscreen qHTS for agonist of cAMP-regulated guanine nucleotide exchange factor 3 (EPAC1) (AID 1645889); further: % of control where 0% means no effect; nearly all actives have a fitted effect of over 40% in size
experimental_parameters: EPAC1 Rap1B-BODIPY-GDP exchange, fluorescence; series mostly up to 154 µM
Records with an inconclusive call do not appear. Active and inactive are the calls of the source. The call rests on the fitted dose curve; in most records, active means well fitted activation curve with a large enough effect; inconclusive means small, poorly fitted or top-dose-only effect, or another doubt; inactive means no such curve, though single readings can be large or run the other way.
value_type: activation

// below: answered compounds
compound	value_type	observed_value
O=C(O)COc1ccc(/C=N/NC(=O)c2ccc(-c3csc(Nc4ccc(Cl)cc4)n3)cc2)cc1	activation	inactive
O=C(O)CC1Sc2nc3ccccc3n2C1=O (centres undefined)	activation	12.5% [at 30.8 µM] (inactive)
Cc1onc(-c2c(Cl)cccc2Cl)c1COC(=O)c1ccc(Cl)cc1	activation	inactive
CCC(=C(c1ccc(OC)cc1)c1ccc(OC)cc1)c1cn(CC(O)CN(CCO)CCO)c2ccccc12 (centres undefined)	activation	inactive
Cc1ccc(F)c(S(=O)(=O)NC(=O)C2(C)CCN2C(=O)C2(c3ccc(Cl)cc3)CCC2)c1 (centres undefined)	activation	inactive
NNc1cccc(C=Cc2ccccc2)cc1=O	activation	27.5% [at 30.8 µM] (inactive)

State its activation: COc1ccc(CCn2c(O)cc3nn(-c4nc5ccccc5s4)c(=O)c-3c2C)cc1
inactive

State its activation: COc1ccccc1Oc1ncnc2c1oc1ccccc12
5.04% [at 30.8 µM] (inactive)

State its activation: CCC(=O)N1N=C(c2cccs2)CC1c1ccc(C)cc1 (centres undefined)
inactive

State its activation: COc1cccc(OCc2cc(/C=N/Nc3ccc(C(=O)O)cc3)ccc2OC)c1
21.5% [at 30.8 µM] (inactive)

State its activation: CC(C)(C)n1nc(Cc2cccc3ccccc23)c(C#N)c1N
inactive

State its activation: Cc1cc(NS(=O)(=O)c2ccc(Nc3nc(-c4ccc(O)cc4)cs3)cc2)no1
inactive

State its activation: Cc1cc(Cl)ccc1OCCCC(=O)OCC(=O)c1c(N)n(C)c(=O)n(C)c1=O
27.4% [at 30.8 µM] (inactive)

State its activation: COC(=O)c1sc(S(=O)(=O)N2CCCCC2C)c(C(=O)OC)c1C (centres undefined)
inactive

====

assay_target: Guanidinoacetate N-methyltransferase (Homo sapiens)
protocol: Confirmatory Screen for Target Class Profiling of Small Molecule Inhibitors of Methyltransferases (AID 1745852); further: on the % scale 0 is the no-effect control and ±100 the full control effect
experimental_parameters: MTase-Glo luminescence, SAH detection, recombinant enzyme; at 57.3 µM (top of the series) unless noted
value_type: activity change, negative = inhibition (%)
Numeric answer only, unit % assumed.

// below: answered compounds
compound	activity change, negative = inhibition / %
CCN1CCN(c2nc3c(S(=O)(=O)c4ccc(C)cc4)nnn3c3ccccc23)CC1	-2.1
O=C(CCC[C@@H]1[C@H]2CCCN3CCC[C@@H](CN1Cc1ccccc1)[C@@H]23)Nc1cccnc1	-5.99
COc1cccc(CN2CCCC3(CCN(c4cc(C)nc(N)n4)C3)C2)c1OC (stereo not drawn)	-7.75
COc1ccccc1N1CCN(S(=O)(=O)c2cccc3c2C(=O)c2ccccc2C3=O)CC1	2.86

State its activity change, negative = inhibition: CCCC1c2cccn2CCN1C(=O)Nc1ccc(F)cc1F (stereo not drawn)
1.31

State its activity change, negative = inhibition: COc1cc2c(cc1O)NC(=O)CC2c1cn[nH]c1-c1cc(C)ccc1C (stereo not drawn)
2.11

State its activity change, negative = inhibition: CC1CCN(CCCNC(=O)CCc2nnc3n(Cc4ccc(Cl)cc4)c(=O)c4ccccc4n23)CC1
-1.55

State its activity change, negative = inhibition: Cn1c(=O)n(C)c2cc(S(=O)(=O)Nc3ccc(-c4nnc(-c5ccccc5)o4)c(Cl)c3)ccc21
-7.85

State its activity change, negative = inhibition: COc1ccc(-c2[nH]ncc2CN2CC[C@H]3CC[C@@H](C2)N3)cc1
7.93

====

assay_target: Rap guanine nucleotide exchange factor 3 (Homo sapiens)
protocol: Counterscreen qHTS for agonist of cAMP-regulated guanine nucleotide exchange factor 3 (EPAC1) (AID 1645889); further: % of control where 0% means no effect; nearly all actives have a fitted effect of over 40% in size
experimental_parameters: EPAC1 Rap1B-BODIPY-GDP exchange, fluorescence; series mostly up to 154 µM
Records with an inconclusive call do not appear. Activity calls are given as the source filed them. Calls come from the whole dose curve; as a rule, active = well fitted activation curve with a large enough effect; inconclusive = small, poorly fitted or top-dose-only effect, or another doubt; inactive = no such curve, though single readings can be large or run the other way.
value_type: activation

// below: answered compounds
compound	observed_value
CCCc1nc(SC2CCCC2)c2c(=O)n(C)c(=O)n(C)c2n1	inactive
CC(=O)NC(c1ccccc1)c1nc(-c2cccs2)cs1 (stereo not given)	inactive
O=C(O)c1cc(NN=Nc2cccc([N+](=O)[O-])c2)cc([N+](=O)[O-])c1	8.61% [at 30.8 µM] (inactive)
CCC(=O)N(CCC(c1ccc(C)cc1)c1ccco1)Cc1ccco1 (stereo not given)	19.5% [at 30.8 µM] (inactive)
Cc1ccc(-c2c3c(=O)n(C)c(=O)n(C)c3c3c(C(F)(F)F)nc4ccccc4n23)cc1	inactive
O=C1C=C(c2ccccc2Oc2ccccc2)C[C@@H](c2ccc3c(c2)OCO3)C1	inactive
COc1cccc(C(=O)Oc2ccc(/C=N/Nc3ccc(C(=O)O)cc3)cc2OC)c1	inactive
CCCCC1=C(C(=O)OCC)C(C(=O)OCC)Oc2ccccc21 (stereo not given)	inactive

State its activation: O=C(CN1CCCC1)Nc1ccccc1Sc1ccc(Cl)cc1
inactive

State its activation: Cc1ccc(NC(=O)CN2C(=O)C(c3ccc(C(C)(C)C)cc3)=NC2(C)C)cc1
inactive
